TARGET_ENTITY: T1, RSV F ectodomain stabilized in the postfusion conformation (F ΔFP), subtype A (Respiratory syncytial virus subtype A, UniProt P03420 26-109; P03420 147-524)
T1 construct: extracellular domain; trimer; furin-cleaved; also called Postfusion subtype A
ASSAY_PROCEDURE: BLI, IgG on AHQ sensor, 100 nM antigen
pKd: −log10 of the molar value.

BINDER	pKd
ADI-14440 (antibody, V domains shown, full-length IgG (yeast-expressed); also called Antibody Number 3; Ab# 3) VH: QVQLVQSGAEVKKPGSSVKVSCKASGGTINNVAISWLRQAPGQGLEWLGGNIPGFGKVRYSQQFETRLTLTADVSSDTAYMVLTSLRSEDTAVYYCAIIDPQLCTRASCFWVNWLDPWGQGTTVTVSS VL: DIVMTQSPGTLSVSPGESAALSCGASESILSDSLAWYQHKPGQAPRLLIYGASSRAAGIPDRFSGSGSGTDFTLTISRLEPEDFAVYFCQQFGALPITFGQGTRLEIK	8.84
ADI-14459 (antibody, V domains shown, full-length IgG (yeast-expressed); also called Antibody Number 22; Ab# 22) VH: QVQLVQSGGGLVKPGGSLRLSCAASGFTFSNAWMSWVRQAPGKGLDWVGRIKTKADGGTRDYAAPVKGRFTISRDDSENTLYLQMTSLKTEDTGVYYCSTGPPYKYHDSTGYSVVDYWGQGTLVTVSS VL: SYELTQPPSASGTPGQRVTISCSGGSSNIGSDYVYWYQQLPGTAPKLLIYGSSQRPSGVPDRFSGSQSGTSASLAISGLRSEDEADYYCAMWDDSLNGPVFGGGTKLTVL	9.58
